Test system: Cyclophilin B (PPIB) gene expression in A549 cells
EXPERIMENTAL PROTOCOL: In vitro assay for PPIB gene expression knockdown in A549 cells
Format: cell-based, human
RECORDED CONDITIONS: N:P ratio 4; A549 cells, PPIB mRNA by RT-PCR 24 hours after transfection; vs QNeg
Primed or numbered codes have the meaning given here. No end group written: not given here. C20 = lipophilic group with a 20-carbon chain; PEG27′ = polyethylene glycol, 27 units; cysteamide = C-terminal cysteamide; C16 = N-terminal C16 lipid; C18 = N-terminal C18 lipid; C18″ = C18 lipid
For each entry below, report its % KD (vs QNeg) A549/PPIB value.
A complete answer gives the number followed by the unit.

Quick one: % KD (vs QNeg) A549/PPIB for Ac-GALFLGFLGAAGSTMGAWSQPKSKRKV-amide (Ac-GALFLGFLGAAGSTMGAWSQPKSKRKV-NH2) [acetylated peptide amide] ?
−3.7%

# get_value(readout='% KD (vs QNeg) A549/PPIB', item= (C18)-PEG27-HHHHHHHHRRRRRRRR-amide ({C18″-PEG27′}-HHHHHHHHRRRRRRRR-NH2) [lipopeptide with C18 lipophilic group and PEG27] )
7.4%

// % KD (vs QNeg) A549/PPIB lookup, key: (C16)-HHHHHKHHHKKKHKHKKK-Cysteamide (C16-HHHHHKHHHKKKHKHKKK-cysteamide) [lipopeptide with C16 lipophilic group]
−19.8%

Need % KD (vs QNeg) A549/PPIB, item (C18)-HHHHHKHHHKKKHKHKKK-cysteamide (C18-HHHHHKHHHKKKHKHKKK-cysteamide) [lipopeptide with C18 lipophilic group]
21.6%

For Ac-LIRLWSHLIHIWFQNRRLKWKKK-amide (Ac-LIRLWSHLIHIWFQNRRLKWKKK-NH2) [acetylated peptide amide] , what is its reported % KD (vs QNeg) A549/PPIB?
−28.8%

Which % KD (vs QNeg) A549/PPIB is listed for Ac-GALFLAFLAAALSLMGLWSQPKSKRKV-Cysteamide (Ac-GALFLAFLAAALSLMGLWSQPKSKRKV-cysteamide) [acetylated peptide cysteamide] ?
16.0%

% KD (vs QNeg) A549/PPIB lookup needed for (C20)-(H)8(R)8(H)8K-NH-(C20) (C20-HHHHHHHHRRRRRRRRHHHHHHHHK(C20)) [lipopeptide with two 20 carbon lipophilic groups] , thanks.
65.8%

----------
System: LacZ gene (bacterial galactosidase) in 9L/LacZ cells
EXPERIMENTAL PROTOCOL: In vitro assay for LacZ gene expression knockdown in 9L cells
RECORDED CONDITIONS: N:P ratio 2, β-galactosidase assay day 3 post transfection
Primed or numbered codes have the meaning given here. No end group written: not given here. C20 = lipophilic group with a 20-carbon chain; PEG27′ = polyethylene glycol, 27 units; cysteamide = C-terminal cysteamide; C16 = N-terminal C16 lipid; C18 = N-terminal C18 lipid; C18″ = C18 lipid
Threshold rule: % KD (vs QNeg) L/9lacZ greater than or equal to 10% is yes; below that, no.

Please check the record Ac-GALFLAFLAAALSLMGLWSQPKSKRKV-Cysteamide (Ac-GALFLAFLAAALSLMGLWSQPKSKRKV-cysteamide) and state if its % KD (vs QNeg) L/9lacZ is at or above 10%.
yes

hey, is % KD (vs QNeg) L/9lacZ for this one >= 10%? (C16)-HHHHHKHHHKKKHKHKKK-Cysteamide (C16-HHHHHKHHHKKKHKHKKK-cysteamide)
yes

Reported % KD (vs QNeg) L/9lacZ reaches at least 10% for (C20)-(H)8(R)8(H)8K-NH-(C20) (C20-HHHHHHHHRRRRRRRRHHHHHHHHK(C20)) ?
yes

Decide: % KD (vs QNeg) L/9lacZ of Ac-GALFLGFLGAAGSTMGAWSQPKSKRKV-amide (Ac-GALFLGFLGAAGSTMGAWSQPKSKRKV-NH2) >= 10%?
no

Please tell me: is the substance Ac-GALFLAFLAAALSLMGLWSQPKKKRKV-Cysteamide (Ac-GALFLAFLAAALSLMGLWSQPKKKRKV-cysteamide) at or over 10% in terms of % KD (vs QNeg) L/9lacZ?
yes

Hi, just wondering whether (C18)-PEG27-HHHHHHHHRRRRRRRR-amide ({C18″-PEG27′}-HHHHHHHHRRRRRRRR-NH2) shows % KD (vs QNeg) L/9lacZ of 10% or higher.
no

Does the reported % KD (vs QNeg) L/9lacZ for (C18)-HHHHRRRRRRRR-Cysteamide (C18-HHHHRRRRRRRR-cysteamide) fall at or above the 10% mark?
no

Say whether Ac-LIRLWSHLIHIWFQNRRLKWKKK-amide (Ac-LIRLWSHLIHIWFQNRRLKWKKK-NH2) shows % KD (vs QNeg) L/9lacZ of 10% or more.
no

// inclusive: % KD (vs QNeg) L/9lacZ at least 10%? input: (C18)-HHHHHKHHHKKKHKHKKK-cysteamide (C18-HHHHHKHHHKKKHKHKKK-cysteamide)
no
